B1: scFv; the commonest letter at each place (parent)
chain 1: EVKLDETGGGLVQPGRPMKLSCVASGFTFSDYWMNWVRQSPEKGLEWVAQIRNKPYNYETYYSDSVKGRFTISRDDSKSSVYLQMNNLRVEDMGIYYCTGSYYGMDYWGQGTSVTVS
chain 2: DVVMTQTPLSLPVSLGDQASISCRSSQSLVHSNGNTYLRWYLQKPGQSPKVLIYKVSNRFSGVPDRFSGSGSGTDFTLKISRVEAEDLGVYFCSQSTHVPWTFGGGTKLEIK

- Variants of: B1
- protocolDescription: yeast surface expression (ratio to wild type); higher = more expressed
- conditionSet: format: scFv 4-4-20, heavy + light
Use 0.5 as the dividing line for yeast surface expression, with the line itself on the MET side and lower values as NOT MET.

Study these solved cases before continuing.
In: Is yeast surface expression for chain 1 F29D Y32E at or above 0.5?
Out: MET

In: Is yeast surface expression for chain 1 F29S at or above 0.5?
Out: MET

In: Is yeast surface expression for chain 1 M34K W36F at or above 0.5?
Out: MET

In: Is yeast surface expression for chain 1 Y103I G104M at or above 0.5?
Out: NOT MET

In: Is yeast surface expression for chain 1 Y102I Y103W at or above 0.5?
Out: MET

In: Is yeast surface expression for chain 1 G104E D106A at or above 0.5?
Out: MET

In: Is yeast surface expression for chain 1 S30Y Y32S W33T at or above 0.5?
Out: MET

In: Is yeast surface expression for chain 1 Y102K M105N at or above 0.5?
Out: MET

Further cases:
In: Is yeast surface expression for chain 1 S101T W108C at or above 0.5?
Out: NOT MET

In: Is yeast surface expression for chain 1 G100H S101G at or above 0.5?
Out: MET

In: Is yeast surface expression for chain 1 Y102R at or above 0.5?
Out: MET

In: Is yeast surface expression for chain 1 S101P at or above 0.5?
Out: NOT MET

In: Is yeast surface expression for chain 1 Y103L G109I at or above 0.5?
Out: NOT MET

In: Is yeast surface expression for chain 1 Y102P W108Y at or above 0.5?
Out: NOT MET

In: Is yeast surface expression for chain 1 G100M S101I G104T at or above 0.5?
Out: NOT MET

In: Is yeast surface expression for chain 1 D31E at or above 0.5?
Out: MET

In: Is yeast surface expression for chain 1 D31P Y32L at or above 0.5?
Out: MET

In: Is yeast surface expression for chain 1 S101C at or above 0.5?
Out: MET

Where these numbers come from: the FLAb antibody collection (doi:10.7554/elife.23156)
